The reported numbers originate from the supplement of paper PMC10567573.

B1: KRT18 (parent)
chain: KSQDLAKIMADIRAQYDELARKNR

- Variants of: B1
- assay-remarks: protein stability index of a GFP-peptide fusion (GPS, HEK-293T) (PSI 1-6); higher = more stable;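 also: lentivirally expressed fusions sorted by FACS into six bins by GFP to DsRed ratio, PSI derived from sequencing read proportions per bin multiplied by bin number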
- measurement-parameters: c terminus: a fixed tail appended
readout: protein stability index

biopolymer_sequence="KSQDLAKIMADIRAQYDELNRKNR [A20N]" meas_value=2.93
biopolymer_sequence="KSQDLSKIMADIRAQYDELARKNR [A6S]" meas_value=3.04
biopolymer_sequence="KSQDLAKIMADIRAQYDELARENR [K22E]" meas_value=3.04
biopolymer_sequence="KSQDLAKIMADIRMQYDELARKNR [A14M]" meas_value=2.67
biopolymer_sequence="KSQDLAKIMADIRAQYDELARKKR [N23K]" meas_value=2.87
biopolymer_sequence="KSQDLAKIMADIRAQYDRLARKNR [E18R]" meas_value=2.39
biopolymer_sequence="KQQDLAKIMADIRAQYDELARKNR [S2Q]" meas_value=2.46
biopolymer_sequence="KSQDLAKINADIRAQYDELARKNR [M9N]" meas_value=4.11
biopolymer_sequence="KSQDLAKIMADIRAQCDELARKNR [Y16C]" meas_value=3.82
biopolymer_sequence="KSQDLAKIMADIRANYDELARKNR [Q15N]" meas_value=3
biopolymer_sequence="KSQDLAKIMADIRAQYDELARFNR [K22F]" meas_value=2.43
biopolymer_sequence="KSQDLAKIMADIRSQYDELARKNR [A14S]" meas_value=3.63
biopolymer_sequence="KSQDLAKIMADIYAQYDELARKNR [R13Y]" meas_value=1.75
biopolymer_sequence="KSQDLPKIMADIRAQYDELARKNR [A6P]" meas_value=3.61
biopolymer_sequence="KSQDLAKIMRDIRAQYDELARKNR [A10R]" meas_value=2.4
biopolymer_sequence="KSQDLAKIMAVIRAQYDELARKNR [D11V]" meas_value=2.14
biopolymer_sequence="KSQDLAKIMADIRGQYDELARKNR [A14G]" meas_value=3.39
biopolymer_sequence="KSQDLAKIMADIRAQYDMLARKNR [E18M]" meas_value=2.54
biopolymer_sequence="KSQDLAKIMADIRAQYWELARKNR [D17W]" meas_value=1.92
biopolymer_sequence="KSQDLAKIMAKIRAQYDELARKNR [D11K]" meas_value=1.8
biopolymer_sequence="KSQDLAKIMADIRAQYDVLARKNR [E18V]" meas_value=2.31
biopolymer_sequence="KSQDLAKIMADIRAQYDELARKNW [R24W]" meas_value=2.13
biopolymer_sequence="KSQDLAKIMIDIRAQYDELARKNR [A10I]" meas_value=2.73
biopolymer_sequence="KSQDLAKIMADIRAQYDELARKIR [N23I]" meas_value=2.58
biopolymer_sequence="KSQDQAKIMADIRAQYDELARKNR [L5Q]" meas_value=4.06
biopolymer_sequence="KSQDLAKIMADITAQYDELARKNR [R13T]" meas_value=2.78
biopolymer_sequence="KSQKLAKIMADIRAQYDELARKNR [D4K]" meas_value=1.98
biopolymer_sequence="KSQDLAKIMADIRATYDELARKNR [Q15T]" meas_value=2.24
biopolymer_sequence="KSQDLAKIMADIRAQEDELARKNR [Y16E]" meas_value=4.37
biopolymer_sequence="KSQDLAKIMADIRAQYDELARKRR [N23R]" meas_value=2.5
biopolymer_sequence="KSTDLAKIMADIRAQYDELARKNR [Q3T]" meas_value=2.76
biopolymer_sequence="KSQDLAKIAADIRAQYDELARKNR [M9A]" meas_value=3.71
biopolymer_sequence="KSQDLAKIMAYIRAQYDELARKNR [D11Y]" meas_value=1.7
biopolymer_sequence="KAQDLAKIMADIRAQYDELARKNR [S2A]" meas_value=2.2
biopolymer_sequence="SSQDLAKIMADIRAQYDELARKNR [K1S]" meas_value=2.58
biopolymer_sequence="KSQDLYKIMADIRAQYDELARKNR [A6Y]" meas_value=2.33
biopolymer_sequence="NSQDLAKIMADIRAQYDELARKNR [K1N]" meas_value=2.6
biopolymer_sequence="KSQDLAKIDADIRAQYDELARKNR [M9D]" meas_value=4.72
biopolymer_sequence="KSQCLAKIMADIRAQYDELARKNR [D4C]" meas_value=1.64
biopolymer_sequence="KSQDLAKIMADIAAQYDELARKNR [R13A]" meas_value=2.47
biopolymer_sequence="KSQDLAKIMADLRAQYDELARKNR [I12L]" meas_value=2.65
biopolymer_sequence="KSQDLAKIMADIRAQYDECARKNR [L19C]" meas_value=3.08
biopolymer_sequence="KSQDLAKIMADIRAQYDELARHNR [K22H]" meas_value=3.1
biopolymer_sequence="KSPDLAKIMADIRAQYDELARKNR [Q3P]" meas_value=2.75
biopolymer_sequence="KSQDLAKIMADIRAQYVELARKNR [D17V]" meas_value=2.2
biopolymer_sequence="KSQDLAKIMVDIRAQYDELARKNR [A10V]" meas_value=3.23
biopolymer_sequence="KSQDLAKIMADIRQQYDELARKNR [A14Q]" meas_value=2.14
biopolymer_sequence="KSQDLAKIMAGIRAQYDELARKNR [D11G]" meas_value=2.12
biopolymer_sequence="KSQDLAKIMHDIRAQYDELARKNR [A10H]" meas_value=2.75
biopolymer_sequence="KSEDLAKIMADIRAQYDELARKNR [Q3E]" meas_value=2.89
biopolymer_sequence="KSQDLAKIMASIRAQYDELARKNR [D11S]" meas_value=2.21
biopolymer_sequence="KSQDLAKICADIRAQYDELARKNR [M9C]" meas_value=3.14
biopolymer_sequence="KSQDLAKIMADIIAQYDELARKNR [R13I]" meas_value=1.92
biopolymer_sequence="KSQDLAKIMADIRAQYDELARKHR [N23H]" meas_value=2.56
biopolymer_sequence="KSQDLAKRMADIRAQYDELARKNR [I8R]" meas_value=3.35
biopolymer_sequence="KSQDLAKIMADIRAQYDEMARKNR [L19M]" meas_value=3.2
biopolymer_sequence="KSQDLAKIMADIRAQYDELAAKNR [R21A]" meas_value=3.1
biopolymer_sequence="KSQDLASIMADIRAQYDELARKNR [K7S]" meas_value=2.46
biopolymer_sequence="KSQDLAKIMADWRAQYDELARKNR [I12W]" meas_value=1.88
biopolymer_sequence="KSQDLAKIMADIRAQYDELARKNF [R24F]" meas_value=2.79
biopolymer_sequence="KSQDLAKIMADIRAQYDELARNNR [K22N]" meas_value=2.7
biopolymer_sequence="KSQDYAKIMADIRAQYDELARKNR [L5Y]" meas_value=2.19
biopolymer_sequence="KSQDLAKIIADIRAQYDELARKNR [M9I]" meas_value=2.03
biopolymer_sequence="KSQDLAKIMADIRAQYDESARKNR [L19S]" meas_value=3.71
biopolymer_sequence="KSQDLAKIMADIRAQYDEAARKNR [L19A]" meas_value=3.52
biopolymer_sequence="KNQDLAKIMADIRAQYDELARKNR [S2N]" meas_value=2.41
biopolymer_sequence="KSQDLAKIMADIRAQYDYLARKNR [E18Y]" meas_value=3.24
biopolymer_sequence="KSQDLAKIMADIRAQYDEYARKNR [L19Y]" meas_value=2.73
biopolymer_sequence="KSQDLAKIMADIRAQYDELARMNR [K22M]" meas_value=2.44
biopolymer_sequence="KSYDLAKIMADIRAQYDELARKNR [Q3Y]" meas_value=1.88
biopolymer_sequence="KSQDLAKIMADIRAQGDELARKNR [Y16G]" meas_value=3.28
biopolymer_sequence="KSQDLAKIMADIRAQYDELARYNR [K22Y]" meas_value=2.29
biopolymer_sequence="KSQDLAKIMADIRAQYDELARKER [N23E]" meas_value=3.83
biopolymer_sequence="KSQDLAKIMADIREQYDELARKNR [A14E]" meas_value=2.89
biopolymer_sequence="KSQDLAKIMADIRAEYDELARKNR [Q15E]" meas_value=2.01
biopolymer_sequence="KSQDLAKIMADIKAQYDELARKNR [R13K]" meas_value=2.92
biopolymer_sequence="KSQSLAKIMADIRAQYDELARKNR [D4S]" meas_value=2.38
biopolymer_sequence="KSQDLAKIMADIRAQQDELARKNR [Y16Q]" meas_value=3.89
biopolymer_sequence="KSQDLAKIMADIRAWYDELARKNR [Q15W]" meas_value=2.46
biopolymer_sequence="KSQDLAKIQADIRAQYDELARKNR [M9Q]" meas_value=3.64
biopolymer_sequence="KSNDLAKIMADIRAQYDELARKNR [Q3N]" meas_value=3.25
biopolymer_sequence="KSQDLAKIMMDIRAQYDELARKNR [A10M]" meas_value=2.3
biopolymer_sequence="KSQDLAKIMADIRAQYDELARKNM [R24M]" meas_value=3.07
biopolymer_sequence="KSQDLAKIMADIRAQVDELARKNR [Y16V]" meas_value=3.58
biopolymer_sequence="KSQDLAKIMADIRAQYDEHARKNR [L19H]" meas_value=3.39
biopolymer_sequence="KSQDLACIMADIRAQYDELARKNR [K7C]" meas_value=2.63
biopolymer_sequence="KSQDLHKIMADIRAQYDELARKNR [A6H]" meas_value=2.71
biopolymer_sequence="KSQDLAKIMADIRAQYDELARKDR [N23D]" meas_value=3.86
